- Assay: solvent given as SMILES
- Condition Parameters: in CN(C)C=O
Below, each of the compounds is paired with its reported emission maximum value.
Quick reminder: number only, in nm, skip the unit.

- Smi: "CC(C)(C)c1ccc(-c2nc3c4ccc(-c5cccc6ccccc56)cc4c4cc(-c5cccc6ccccc56)ccc4c3n2-c2ccc(C(C)(C)C)cc2)cc1"
  emission maximum (nm): 394
- Smi: "CN(C)CCNCc1c2ccccc2cc2ccccc12"
  emission maximum (nm): 414
- Smi: "O=C1/C(=C2\\Sc3ccc(S(=O)(=O)O)cc3C2=O)Sc2ccc(S(=O)(=O)O)cc21"
  emission maximum (nm): 613

// next entry
emission maximum measured on `O=C(O)c1ccccc1Nc1ccccc1` = 386

* * *

- Assay: solvent given as SMILES
- Condition Parameters: in CCCCCCCO
Experimental Readout: emission maximum (nm)
Give the value, in units of nm, as a plain number.

Here is how some compounds turned out for emission maximum.
- Compound: "CCNc1ccc(NCC)c2c1C(=O)c1ccccc1C2=O"
  emission maximum, nm: 666
- Compound: "Cc1ccc(Nc2ccc(Nc3ccc(C)cc3)c3c2C(=O)c2ccccc2C3=O)cc1"
  emission maximum, nm: 684
- Compound: "COC(=O)C(Cc1ccc2oc(-c3ccc(N(C)C)cc3)nc2c1)NC(=O)OC(C)(C)C (centres undefined)"
  emission maximum, nm: 396.49

Please look at the following compound next.
The reported value for `Oc1ccc(/N=C/c2ccccc2Oc2ccccc2)cc1` in terms of emission maximum is 413

* * *

The following compounds are listed with their measured emission maximum values.
- Assay: solvent given as SMILES
- Condition Parameters: in c1cc(-n2c3ccccc3c3ccccc32)cc(-n2c3ccccc3c3ccccc32)c1
Numbers only here, please. The scale is nm.

Looking up `O=C(c1ccccc1)c1cc2ccc1CCc1ccc(c(-c3ccc(N(c4ccccc4)c4ccccc4)cc3)c1)CC2` , I see its emission maximum listed as 468.87

Sample `O=S(=O)(c1cccc(N2c3ccccc3Sc3ccccc32)c1)c1cccc(N2c3ccccc3Sc3ccccc32)c1` ; emission maximum observed: 550.83

Lab note: measured emission maximum of `CC(C)(C)c1ccc2c(c1)c1cc(C(C)(C)C)ccc1n2-c1ccc(-n2c3ccc(C(C)(C)C)cc3c3cc(C(C)(C)C)ccc32)c(-c2nccnc2C#N)c1` was 493

* * *

# emission maximum per entry
- Assay: solvent given as SMILES
- Condition Parameters: in CC#N
Give a bare numeral; the unit nm is implied.

Example compounds with recorded emission maximum:
- Compound: "Cc1cccc(C)c1Nc1ccc(/C=C/c2cccnc2)cc1"
  emission maximum, nm: 450
- Compound: "CCOC(=O)c1c2c3c(ccc(C)c3c3cc4ccccc4cc13)N(C)C2=O"
  emission maximum, nm: 413
- Compound: "CCC1(CC)c2cc(B(c3c(C)cc(C)cc3C)c3c(C)cc(C)cc3C)ccc2-c2c1c1c(c3c2C(CC)(CC)c2cc(N(c4ccccc4)c4ccccc4)ccc2-3)C(CC)(CC)c2cc(B(c3c(C)cc(C)cc3C)c3c(C)cc(C)cc3C)ccc2-1"
  emission maximum, nm: 582
- Compound: "CCOC(=O)c1c2c3c(ccc(F)c3c3cc4ccccc4cc13)N(C)C2=O"
  emission maximum, nm: 415
- Compound: "Cn1c(/C=C/c2ccc(/C=C/c3nc4ccccc4[nH]3)cc2)[n+](C)c2ccccc21"
  emission maximum, nm: 576
- Compound: "CN(C)c1ccc(/C=C/c2ncnc3ccccc23)cc1"
  emission maximum, nm: 572

The reported value for `CCCCN(CCCC)c1ccc(/C=C/c2ccc3nc(/C=C/c4ccc(N(C)C)cc4)c(-c4ccccc4)nc3c2)cc1` in terms of emission maximum is 661

So for CC(=O)c1ccc(/C=C/C=C/C2=NC3C(=O)NC(N)=NC3N2[C@H]2C[C@H](O)[C@@H](CO)O2)cc1 (stereo partly drawn) , the logged emission maximum turned out to be 547
